Biological target: T1, Human Mcl-1 protein, residues 171-327, N-terminal 8xHis tag (human, UniProt Q07820-1 171-327)
T1 construct: human Mcl-1 fragment (NM_021960), residues 171-327; Cloned into the pHis-TEV vector; source: E. coli BL21(DE3), purified (Ni-NTA, Source Q15)
T1 sequence (Q07820 171-327): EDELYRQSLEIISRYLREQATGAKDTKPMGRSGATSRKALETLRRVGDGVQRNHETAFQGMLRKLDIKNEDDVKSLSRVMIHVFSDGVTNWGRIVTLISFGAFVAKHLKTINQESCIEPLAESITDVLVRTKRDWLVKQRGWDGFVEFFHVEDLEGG
Assay: SPR; competitive solution binding: protein (20 nM) pre-incubated with tested BH3 peptide for at least 30 min, injected over immobilised biotin-Bim BH3 peptide; response at 30 s of dissociation
Settings: both partners purified
Value kind: IC50 (nM)
Give bare numbers, in nM.

q: Entry under review: PAELEVECATQLRRFGDKLNFRQKLL (Noxa BH3 peptide, residues 18-43 of Swiss-Prot Q13794; source: provided by Dr. Peter P Roller (National Cancer Institute)) [Noxa BH3 peptide (residues 18-43)] . Reported IC50?
a: 51

Then this binder:
q: Entry under review: QEDIIRNIARHLAQVGDSMDR (Bid BH3 peptide, residues 79-99 of Swiss-Prot P55957; also called unlabeled Bid BH3 peptide; source: provided by Dr. Peter P Roller (National Cancer Institute)) [Bid BH3 peptide (residues 79-99)] . Reported IC50?
a: 60.1

Hello, the source for this data is paper PMC3717276, in case you need it.
